- assaySystem: Serine/threonine-protein kinase mTOR (Homo sapiens) (UniProt P42345)
- conditionDescription: at 1 µM
Assign residual activity to each entry below.

-- ask Can you share its residual activity? I mean this compound: CO[C@@H]1[C@H](N(C)C(=O)c2ccccc2)C[C@H]2O[C@]1(C)n1c3ccccc3c3c4c(c5c6ccccc6n2c5c31)C(=O)NC4
-- reply 95%

-- ask Quick check: residual activity of Cn1nc2c3c(cccc31)C(=O)c1ccccc1-2 ?
-- reply 82%

-- ask Recorded residual activity for CNc1cc2c(Nc3cccc(Br)c3)ncnc2cn1 , please?
-- reply 105%

-- ask Can you look up the measured residual activity of Cc1nc2cc3nc(-c4cccs4)cnc3cc2n1C for me?
-- reply 105%

-- ask Record request: residual activity value, item O=C1NC(=O)/C(=C/c2ccc3c(c2)OC(F)(F)O3)S1
-- reply 82%

-- ask Tell me the measured residual activity of CCOc1cc2ncnc(Nc3cccc(Br)c3)c2cc1OCC , please.
-- reply 110%

-- ask Given the compound Cc1nc(-c2ccccc2)c(-c2ccncc2)o1 , what is its reported residual activity?
-- reply 109%

-- ask So what's the measured residual activity for this one? Cc1ccc(S(=O)(=O)/C=C/C#N)cc1
-- reply 95%

-- ask Tell me the measured residual activity of CN(C)c1ccc(/C=C2\C(=O)Nc3ccccc32)cc1 , please.
-- reply 78%

-- ask // returns reported residual activity for input O=C1Nc2ccccc2/C1=C1/Nc2ccccc2/C1=N\OCCC(O)CO (stereo unspecified)
-- reply 113%

-- ask // lookup residual activity for COc1cc2ncnc(N3CCN(C(=O)Nc4ccc(Oc5ccccc5)cc4)CC3)c2cc1OC
-- reply 107%

----------
- assaySystem: Fibroblast growth factor receptor 4 (Homo sapiens) (UniProt P22455)
- Sequence (P22455 22-802 limits assumed): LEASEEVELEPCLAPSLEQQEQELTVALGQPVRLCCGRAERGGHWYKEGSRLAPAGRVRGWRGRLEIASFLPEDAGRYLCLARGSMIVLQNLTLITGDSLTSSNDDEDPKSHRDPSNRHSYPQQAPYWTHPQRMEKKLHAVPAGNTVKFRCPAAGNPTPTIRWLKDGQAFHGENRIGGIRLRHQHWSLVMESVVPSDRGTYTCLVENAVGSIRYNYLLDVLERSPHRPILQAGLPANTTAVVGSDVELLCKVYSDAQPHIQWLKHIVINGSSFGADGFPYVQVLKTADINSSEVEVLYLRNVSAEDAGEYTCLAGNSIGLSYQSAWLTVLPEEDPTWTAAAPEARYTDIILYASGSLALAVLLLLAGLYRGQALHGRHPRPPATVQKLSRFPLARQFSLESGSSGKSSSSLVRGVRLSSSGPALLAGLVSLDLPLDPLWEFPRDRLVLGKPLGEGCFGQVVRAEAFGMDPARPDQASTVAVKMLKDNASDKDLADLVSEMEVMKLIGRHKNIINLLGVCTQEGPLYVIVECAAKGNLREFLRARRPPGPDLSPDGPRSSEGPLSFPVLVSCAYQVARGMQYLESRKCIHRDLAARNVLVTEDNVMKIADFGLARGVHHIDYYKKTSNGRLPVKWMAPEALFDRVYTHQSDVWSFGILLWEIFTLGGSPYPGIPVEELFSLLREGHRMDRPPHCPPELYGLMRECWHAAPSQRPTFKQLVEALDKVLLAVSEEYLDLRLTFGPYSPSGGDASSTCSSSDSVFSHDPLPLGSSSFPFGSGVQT
- conditionDescription: at 1 µM
Please respond with reported residual activity for every item in the list.
The reply should be a number in %, with the unit left off.

-- ask # value lookup — system Fibroblast growth factor receptor 4 (Homo sapiens) (UniProt P22455), readout residual activity, item O=C(Nc1cccc(Nc2nccc(Nc3cccc(C(F)(F)F)c3)n2)c1)C1CC1
-- reply 108

-- ask Item: Oc1ccc(Nc2nc(-c3ccc(Cl)cc3)cs2)cc1 Test system: Fibroblast growth factor receptor 4 (Homo sapiens) (UniProt P22455) Read-out: residual activity Value: ?
-- reply 125

-- ask Query for Fibroblast growth factor receptor 4 (Homo sapiens) (UniProt P22455): what residual activity does the record show for CC(C)n1cnc2c(NCc3ccccc3)nc(NCCCO)nc21 ?
-- reply 104

-- ask Item Ic1cccc(CSc2nnc(-c3ccncc3)o2)c1 with Fibroblast growth factor receptor 4 (Homo sapiens) (UniProt P22455) - residual activity?
-- reply 112

-- ask For Fibroblast growth factor receptor 4 (Homo sapiens) (UniProt P22455), provide residual activity of O=C1NC(=O)c2c1c1c3ccccc3[nH]c1c1[nH]c3cc(Br)ccc3c21 please.
-- reply 94

-- ask Can you look up residual activity on Fibroblast growth factor receptor 4 (Homo sapiens) (UniProt P22455) for COc1cc2ncnc(Nc3ccc(Oc4ccccc4)cc3)c2cc1OC ?
-- reply 121

-- ask Test system Fibroblast growth factor receptor 4 (Homo sapiens) (UniProt P22455); read-out residual activity; what value for c1ccc2c(-c3ccncc3)c[nH]c2c1 ?
-- reply 112

-- ask Item Cc1ccc(NC2=CC(=O)c3sc(C)nc3C2=O)cc1 with Fibroblast growth factor receptor 4 (Homo sapiens) (UniProt P22455) - residual activity?
-- reply 101

-- ask Lab note: need residual activity with Fibroblast growth factor receptor 4 (Homo sapiens) (UniProt P22455) for entry O=C1NC(=O)c2cc(Nc3ccc(F)cc3)c(Nc3ccc(F)cc3)cc21 , please look it up.
-- reply 142

-- ask Report residual activity for O=C(O)c1ccc2c3c1cccc3c(=O)n1c3ccccc3nc21 tested on Fibroblast growth factor receptor 4 (Homo sapiens) (UniProt P22455).
-- reply 112

-- ask For Fibroblast growth factor receptor 4 (Homo sapiens) (UniProt P22455), provide residual activity of N#CC(C#N)=C(N)/C(C#N)=C/c1ccc(O)cc1 please.
-- reply 135

-- ask What reported residual activity corresponds to O=[N+]([O-])c1ccc(-c2nc(-c3ccc(F)cc3)c(-c3ccncc3)[nH]2)cc1 on Fibroblast growth factor receptor 4 (Homo sapiens) (UniProt P22455)?
-- reply 122

-- ask # value lookup — system Fibroblast growth factor receptor 4 (Homo sapiens) (UniProt P22455), readout residual activity, item COc1ccc(S(=O)(=O)N(CCO)c2ccccc2CN(C)C/C=C/c2ccc(Cl)cc2)cc1
-- reply 129
